// provenance: ChEMBL document CHEMBL4732101

- tested.target: Protein deacetylase HDAC6 (Homo sapiens, UniProt Q9UBN7)
- Sequence (Q9UBN7 whole entry): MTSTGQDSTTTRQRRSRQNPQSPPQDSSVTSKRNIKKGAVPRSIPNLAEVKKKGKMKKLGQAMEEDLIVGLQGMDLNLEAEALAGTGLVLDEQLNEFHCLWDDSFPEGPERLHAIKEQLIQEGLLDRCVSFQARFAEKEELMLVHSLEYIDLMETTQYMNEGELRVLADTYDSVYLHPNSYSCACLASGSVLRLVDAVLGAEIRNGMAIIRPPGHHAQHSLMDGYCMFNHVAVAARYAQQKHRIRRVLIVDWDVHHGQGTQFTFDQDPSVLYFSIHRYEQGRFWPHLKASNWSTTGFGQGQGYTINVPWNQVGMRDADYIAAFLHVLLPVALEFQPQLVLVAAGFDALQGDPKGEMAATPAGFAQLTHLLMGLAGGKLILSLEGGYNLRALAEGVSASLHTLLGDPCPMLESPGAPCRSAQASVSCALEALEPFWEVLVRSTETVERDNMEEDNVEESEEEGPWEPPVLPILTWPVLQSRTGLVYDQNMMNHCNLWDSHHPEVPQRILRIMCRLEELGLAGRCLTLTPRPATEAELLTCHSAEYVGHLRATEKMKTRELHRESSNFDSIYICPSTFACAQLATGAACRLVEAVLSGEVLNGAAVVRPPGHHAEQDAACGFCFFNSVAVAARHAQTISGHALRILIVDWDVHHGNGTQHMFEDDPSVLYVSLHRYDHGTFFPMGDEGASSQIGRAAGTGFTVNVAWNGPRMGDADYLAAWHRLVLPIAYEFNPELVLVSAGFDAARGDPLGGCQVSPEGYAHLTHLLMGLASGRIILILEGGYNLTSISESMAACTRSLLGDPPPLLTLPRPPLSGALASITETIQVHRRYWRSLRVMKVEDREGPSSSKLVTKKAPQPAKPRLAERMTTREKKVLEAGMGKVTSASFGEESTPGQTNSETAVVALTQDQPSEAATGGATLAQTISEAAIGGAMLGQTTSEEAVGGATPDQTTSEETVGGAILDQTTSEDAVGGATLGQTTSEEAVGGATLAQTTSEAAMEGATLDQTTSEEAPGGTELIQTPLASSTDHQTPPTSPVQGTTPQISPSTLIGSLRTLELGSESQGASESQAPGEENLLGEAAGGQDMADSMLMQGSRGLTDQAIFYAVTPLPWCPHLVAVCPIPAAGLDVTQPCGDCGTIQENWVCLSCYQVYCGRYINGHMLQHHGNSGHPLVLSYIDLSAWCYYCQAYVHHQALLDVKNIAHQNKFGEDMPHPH
- assay.details: Inhibition of recombinant human full length N-terminal GST-tagged HDAC6 expressed in baculovirus infected Sf9 cells using Z-(Ac)Lys-AMC as substrate measured after 90 mins by fluorescence assay
metric.name: IC50 (nM)

Consider the following illustrative entries.
• COc1c(-c2ccccc2)c2ccccc2n(Cc2ccc(C(=O)NO)cc2)c1=O = 61.6
• O=C(NO)c1ccc(Cn2c(=O)c(O)c(-c3cccnc3)c3ccccc32)cc1 = 296
• O=C(NO)c1ccc(COc2c(-c3cccnc3)c3ccccc3n(Cc3ccncc3)c2=O)cc1 = 45.3
• O=C(NO)c1ccc(COc2c(-c3ccccc3)c3ccccc3[nH]c2=O)cc1 = 147
• O=C(NO)c1ccc(COc2c(-c3ccccc3)c3ccccc3n(C3CCN(Cc4ccccc4)CC3)c2=O)cc1 = 870

P. O=C(NO)c1ccc(COc2c(-c3ccccc3)c3ccccc3n(Cc3ccccc3)c2=O)cc1
Q. O=C(NO)c1ccc(Cn2c(=O)c(OCc3ccccc3)c(-c3ccccc3)c3ccccc32)cc1
R. O=C(NO)c1ccc(COc2c(-c3cccnc3)c3ccccc3n(Cc3ccccc3)c2=O)cc1
S. Cn1c(=O)c(OCc2ccc(C(=O)NO)cc2)c(-c2cccnc2)c2ccccc21
query: Put these in order: smallest IC50 first, largest last. Output the labels ranked as instructed.
result: R, S, Q, P
(R: 25.6 nM, S: 46 nM, Q: 84.5 nM, P: 176 nM)

---

- tested.target: HDAC1 (histone deacetylase 1) (Homo sapiens, UniProt Q13547)
- Sequence (Q13547 whole entry, the tested form may be a part): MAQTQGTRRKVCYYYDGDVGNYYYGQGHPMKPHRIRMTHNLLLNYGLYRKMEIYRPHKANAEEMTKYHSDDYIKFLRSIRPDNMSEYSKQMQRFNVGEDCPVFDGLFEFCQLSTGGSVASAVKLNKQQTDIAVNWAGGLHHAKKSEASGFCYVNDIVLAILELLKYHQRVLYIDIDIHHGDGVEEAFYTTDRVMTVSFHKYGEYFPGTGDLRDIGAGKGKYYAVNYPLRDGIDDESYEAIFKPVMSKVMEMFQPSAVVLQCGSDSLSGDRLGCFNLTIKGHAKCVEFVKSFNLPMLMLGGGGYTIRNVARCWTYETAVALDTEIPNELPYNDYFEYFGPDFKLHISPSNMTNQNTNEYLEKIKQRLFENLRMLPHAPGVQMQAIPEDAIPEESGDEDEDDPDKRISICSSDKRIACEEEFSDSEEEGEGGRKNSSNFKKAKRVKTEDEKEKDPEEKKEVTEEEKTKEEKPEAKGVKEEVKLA
- assay.details: Inhibition of recombinant human C-terminal FLAG/His-tagged HDAC1 (1 to 482 residues) expressed in Sf9 insect cells at 25 uM using Z-(Ac)Lys-AMC as substrate measured after 90 mins by fluorescence assay relative to control
- conditions: probe Z-(Ac)Lys-AMC
metric.name: inhibition at 1.5 h, 25 µM (%)

- O=C(NO)c1ccc(COc2c(-c3ccccc3)c3ccccc3n(C3CCN(Cc4ccccc4)CC3)c2=O)cc1: 67

a. O=C(NO)c1ccc(COc2c(-c3ccccc3)c3ccccc3n(Cc3ccccc3)c2=O)cc1
b. Cn1c(=O)c(OCc2ccc(C(=O)NO)cc2)c(-c2ccccc2)c2ccccc21
query: Which has the higher inhibition at 1.5 h, 25 µM, a or b ? # answer = label of selected item
result: a

---

- tested.target: Protein deacetylase HDAC6 (Homo sapiens)
- assay.details: Inhibition of recombinant human full length N-terminal GST-tagged HDAC6 expressed in baculovirus infected Sf9 cells using Z-(Ac)Lys-AMC as substrate measured after 90 mins by fluorescence assay
pIC50: −log10 of the molar value.
metric.name: pIC50

Here are 2 compounds together with their reported answers.
- Cn1c(=O)c(OCc2ccc(C(=O)NO)cc2)c(C2CCCCC2)c2ccccc21: 7.48
- C#CCn1c(=O)c(OCc2ccc(C(=O)NO)cc2)c(-c2ccccc2)c2ccccc21: 7.08

a. Cn1c(=O)c(OCc2ccc(C(=O)NO)cc2)c(-c2ccccc2)c2ccccc21
b. O=C(NO)c1ccc(COc2c(-c3ccccc3)c3ccccc3n(Cc3ccncc3)c2=O)cc1
c. O=C(NO)c1ccc(Cn2c(=O)c(O)c(-c3ccccc3)c3ccccc32)cc1
query: Order the entries by their reported pIC50, beginning at the minimum. Please write the labels in the order that was asked for.
result: a, c, b
(a: 6.28, c: 6.51, b: 7.08)

---

- tested.target: HDAC1 (histone deacetylase 1) (Homo sapiens)
- assay.details: Inhibition of recombinant human C-terminal FLAG/His-tagged HDAC1 (1 to 482 residues) expressed in Sf9 insect cells at 1 uM using Z-(Ac)Lys-AMC as substrate measured after 90 mins by fluorescence assay relative to control
- conditions: probe Z-(Ac)Lys-AMC
metric.name: inhibition at 1.5 h, 1 µM

query: inhibition at 1.5 h, 1 µM for O=C(NO)c1ccc(COc2c(-c3ccccc3)c3ccccc3n(C3CCN(Cc4ccccc4)CC3)c2=O)cc1 ?
result: < 10%

---

- tested.target: UniProt:Q13547
- assay.details: Inhibition of recombinant human C-terminal FLAG/His-tagged HDAC1 (1 to 482 residues) expressed in Sf9 insect cells using Z-(Ac)Lys-AMC as substrate measured after 90 mins by fluorescence assay
pIC50: −log10 of the molar value.
metric.name: pIC50

Previously resolved entries follow.
* O=C(NO)c1ccc(Cn2c(=O)c(OCc3ccccc3)c(-c3ccccc3)c3ccccc32)cc1 | 5.26
* COc1c(-c2ccccc2)c2ccccc2n(Cc2ccc(C(=O)NO)cc2)c1=O | 5.35
* Cn1c(=O)c(OCc2ccc(C(=O)NO)cc2)c(-c2cccnc2)c2ccccc21 | 5.30
* O=C(NO)c1ccc(COc2c(-c3cccnc3)c3ccccc3n(Cc3ccncc3)c2=O)cc1 | 5.77
* Cn1c(=O)c(OCc2ccc(C(=O)NO)cc2)c(C2CCCCC2)c2ccccc21 | 5.52

P. O=C(NO)c1ccc(COc2c(-c3cccnc3)c3ccccc3n(Cc3ccccc3)c2=O)cc1
Q. O=C(NO)c1ccc(COc2c(-c3ccccc3)c3ccccc3[nH]c2=O)cc1
R. O=C(NO)c1ccc(Cn2c(=O)c(O)c(-c3ccccc3)c3ccccc32)cc1
S. O=C(NO)c1ccc(COc2c(-c3ccccc3)c3ccccc3n(Cc3ccncc3)c2=O)cc1
query: Ranking field: pIC50; order: falling. Answer format: the labels, ordered as requested.
result: S, P, Q, R
(S: 5.92, P: 5.60, Q: 5.18, R: 4.96)

---

- tested.target: UniProt:Q9BY41
- Sequence (Q9BY41 whole entry): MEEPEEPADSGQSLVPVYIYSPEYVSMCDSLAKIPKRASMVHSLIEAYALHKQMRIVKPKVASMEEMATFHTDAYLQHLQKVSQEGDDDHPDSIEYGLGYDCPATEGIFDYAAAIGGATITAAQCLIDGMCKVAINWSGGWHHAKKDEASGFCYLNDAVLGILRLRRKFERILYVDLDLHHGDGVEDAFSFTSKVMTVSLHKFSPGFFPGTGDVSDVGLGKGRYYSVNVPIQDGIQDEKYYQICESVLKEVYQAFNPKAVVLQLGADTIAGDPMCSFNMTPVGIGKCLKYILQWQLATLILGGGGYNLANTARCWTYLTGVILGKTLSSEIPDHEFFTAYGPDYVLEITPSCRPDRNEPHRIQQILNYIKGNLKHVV
- assay.details: Inhibition of recombinant human HDAC8 using Fluor-de-Lys as substrate measured after 1 hr by fluorescence assay
metric.name: IC50 (nM)

• CCN(CC)Cc1ccc(Cn2c(=O)c(OCc3ccc(C(=O)NO)cc3)c(-c3ccccc3)c3ccccc32)cc1 = 550

P. Cn1c(=O)c(OCc2ccc(C(=O)NO)cc2)c(C2CCCCC2)c2ccccc21
Q. CCN(CC)Cc1ccc(Cn2c(=O)c(OCc3ccc(C(=O)NO)cc3)c(-c3cccnc3)c3ccccc32)cc1
query: Pick one: P or Q . Which has the bigger IC50 number? Reply with the label of the item you choose.
result: P
(P: 1640 nM, Q: 490 nM)

---

- assay.details: Stability of compound in pH 3 buffer assessed as parent compound remaining at 250 uM measured after 24 hrs by HPLC/UV/DAD method
- Assay type: physicochemical
- conditions: read-out: Stabilty
Catalogue of compounds with associated remaining at 24 h, 250 µM

Please review the following examples before continuing.
* CCN(CC)Cc1ccc(Cn2c(=O)c(OCc3ccc(C(=O)NO)cc3)c(-c3cccnc3)c3ccccc32)cc1 | > 95%
* COc1c(-c2ccccc2)c2ccccc2n(Cc2ccc(C(=O)NO)cc2)c1=O | > 95%

Now for the compound whose remaining at 24 h, 250 µM we want.
query: Recorded remaining at 24 h, 250 µM of O=C(NO)c1ccc(COc2c(-c3ccccc3)c3ccccc3n(Cc3ccncc3)c2=O)cc1 , please.
result: > 95%

---

- tested.target: HDAC1 (histone deacetylase 1) (Homo sapiens)
- assay.details: Inhibition of recombinant human C-terminal FLAG/His-tagged HDAC1 (1 to 482 residues) expressed in Sf9 insect cells at 50 uM using Z-(Ac)Lys-AMC as substrate measured after 90 mins by fluorescence assay relative to control
- conditions: probe Z-(Ac)Lys-AMC
metric.name: inhibition at 1.5 h, 50 µM (%)

- O=C(NO)c1ccc(COc2c(-c3ccccc3)c3ccccc3n(Cc3ccccc3)c2=O)cc1: 97
- O=C(NO)c1ccc(COc2c(-c3ccccc3)c3ccccc3n(C3CCN(Cc4ccccc4)CC3)c2=O)cc1: 79
- Cn1c(=O)c(OCc2ccc(C(=O)NO)cc2)c(-c2ccccc2)c2ccccc21: 80
- O=C(NO)c1ccc(Cn2c(=O)c(O)c(-c3cccnc3)c3ccccc32)cc1: 96

---

- tested.target: HDAC1 (histone deacetylase 1) (Homo sapiens, UniProt Q13547)
- assay.details: Inhibition of recombinant human C-terminal FLAG/His-tagged HDAC1 (1 to 482 residues) expressed in Sf9 insect cells at 10 uM using Z-(Ac)Lys-AMC as substrate measured after 90 mins by fluorescence assay relative to control
- conditions: probe Z-(Ac)Lys-AMC
metric.name: inhibition at 1.5 h, 10 µM (%)

Worked examples follow.
* Cn1c(=O)c(OCc2ccc(C(=O)NO)cc2)c(-c2ccccc2)c2ccccc21 | 26
* O=C(NO)c1ccc(COc2c(-c3ccccc3)c3ccccc3n(C3CCN(Cc4ccccc4)CC3)c2=O)cc1 | 46

I. O=C(NO)c1ccc(Cn2c(=O)c(O)c(-c3cccnc3)c3ccccc32)cc1
II. O=C(NO)c1ccc(COc2c(-c3ccccc3)c3ccccc3n(Cc3ccccc3)c2=O)cc1
query: Looking at recorded values for inhibition at 1.5 h, 10 µM, does I or II come in lower? Please indicate the selected item by its label.
result: I
(I: 36%, II: 76%)

---

- tested.target: HDAC1 (histone deacetylase 1) (Homo sapiens, UniProt Q13547)
- assay.details: Inhibition of recombinant human C-terminal FLAG/His-tagged HDAC1 (1 to 482 residues) expressed in Sf9 insect cells at 1 uM using Z-(Ac)Lys-AMC as substrate measured after 90 mins by fluorescence assay relative to control
- conditions: probe Z-(Ac)Lys-AMC
metric.name: inhibition at 1.5 h, 1 µM

For orientation, consider the following solved cases.
* O=C(NO)c1ccc(Cn2c(=O)c(O)c(-c3cccnc3)c3ccccc32)cc1 | < 10%
* O=C(NO)c1ccc(COc2c(-c3ccccc3)c3ccccc3n(Cc3ccccc3)c2=O)cc1 | 17%

Consider now this further compound.
query: // query inhibition at 1.5 h, 1 µM value for entry Cn1c(=O)c(OCc2ccc(C(=O)NO)cc2)c(-c2ccccc2)c2ccccc21
result: < 10%
